Max MFI overview
Target: T1, human CD24 (human, UniProt P25063 27-59, heavily glycosylated, GPI-anchored (as described in the background))
T1 construct: whole, on cells; Target of all cell-based FACS assays; also called hCD24; Cluster of differentiation 24
T1 chain (looked up): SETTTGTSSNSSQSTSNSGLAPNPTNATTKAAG
Test: FACS, CHOK1-hCD24 cells

Completed entries (count: 2):
[
  {
    "BINDER": "73H5-1G2 (antibody, V domains shown, mouse monoclonal antibody) VH: QVQLKQSGPGLVQPSQSLSITCTVSGFSLTNYGVHWIRQSPGKGLEWLGVIWRGGSTDYNAAFMSRLSITKDNSKSQVFFQMNSLQAADTAIYYCANNYGYDCFAYWGQGTLVTVSA VL: DVQITQSPSYLAASPGETITINCRASKSIIKYLAWYQEKPGKTNKLLIYSGSTLQSGIPSRFSGSGSGTDFTLTITSLEPEDFAMYYCQQHNEYPLTFGAGTRLELK",
    "READOUT_NAME": "Max MFI",
    "ENDPOINT_VALUE": 19900
  },
  {
    "BINDER": "58F10-1F6 (antibody, V domains shown, mouse monoclonal antibody) VH: EVQLRQSGPELVKPGAAVKISCKASGYSFTGYHMNWVKQSPEKSLEWIGEINPITSGITYNQIFKAKATLTVDKSSSTAYLQLKSLTSEDSAVYYCTRRDYGTSLDYWGQGTTLTVSS VL: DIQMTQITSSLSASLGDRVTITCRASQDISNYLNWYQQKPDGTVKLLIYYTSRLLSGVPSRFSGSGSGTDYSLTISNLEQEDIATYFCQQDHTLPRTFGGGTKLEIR",
    "READOUT_NAME": "Max MFI",
    "ENDPOINT_VALUE": 28100
  }
]

The record that follows has no Max MFI shown yet.
// sample ch81A1F8-hIgG4 (antibody, V domains shown, chimeric; also called chAb81A1F8; ch81A1F8-IgG4) VH: EVQLQQSGPELVKPGASVKISCKATGYLFTGYYMNWVKQSPEKSLEWIGEINPNTGDTNNNQKFKAKATMTVDRSSSTAYMQLKRLTSEDSAVYYCVRRDYGTSLDYWGQGTTLTVSS VL: DVQITQSPSYLAASPGETITINCRASKSINKYLAWYQEKPGKTNKLLIHSGSTLQSGIPSRFSGSRSGTDFTLTISNLEPEDFAMYYCQQHNEYPITFGAGTKLELK , its Max MFI was 85300
